Data origin: PubChem BioAssay AID2060497

Tested on: 317291-083-R-J1-PDC complex spheroids, viability;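 note: spheroids exposed to compounds for one week before readout; percent viability relative to DMSO vehicle wells taken as 100%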
Assay: Anticancer human tumor 317291-083-R-J1-PDC patient-derived soft tissue sarcoma cell line growth inhibition [GQUAD]
Conditions: second compound 0.1 µM; first compound 0.316 µM; hits give low values
Source text: DNA G-quadruplex Stabilizer Agents in Combinations in Complex Spheroids A high-throughput screen of multi-cell type tumor spheroids was designed to identify active combinations of DNA G-quadruplex stabilizer agents and targeted small molecules. […] Compounds. […] If the clinical Cmax for an agent had not been determined, the highest concentration tested was 10 microM. […]
Exercise: state measured viability, T/C for each of the molecules provided.
Give the number; % is assumed, so skip it.

Look up viability, T/C of C=CCn1c(=O)c2cnc(Nc3ccc(N4CCN(C)CC4)cc3)nc2n1-c1cccc(C(C)(C)O)n1 + CN(C)c1ccc(Nc2c3ccc(NC(=O)CCN4CCCC4)cc3nc3cc(NC(=O)CCN4CCCC4)ccc23)cc1 and report it. 25.7

Look up viability, T/C of C=CCn1c(=O)c2cnc(Nc3ccc(N4CCN(C)CC4)cc3)nc2n1-c1cccc(C(C)(C)O)n1 + Cc1cnc(CNC(=O)c2c(=O)c3ccc(N4CCCN(C)CC4)nc3n3c2sc2ccccc23)cn1 and report it. 30.3

Look up viability, T/C of O=c1[nH]cc(F)c(=O)[nH]1 + Cc1[nH]c2ccc(F)cc2c1-c1nc2c3cccnc3c3ncccc3c2[nH]1 and report it. 96.7
